Assay notes: Human HepG2 cell viability assay in 384 well format
Assay type: toxicity, cell-based
Parameters: dose 125 nL, time 70.5 hour; concentration not given beside the values
Test settings: HepG2 cells, read-out: Inhibition
Listed here: items and their measured cytotoxicity at 70.5 h.

Molecule	Value units	cytotoxicity at 70.5 h
CC[C@H]1N(CC2CCOCC2)CCC[C@]12CCC(=O)N2	%	-3.56
COc1ccccc1N(C)S(=O)(=O)c1cc(C(=O)O)cs1	%	-4.98
Cc1cnn(CCNCc2ccccc2F)c1	%	0.747
COc1ccccc1[C@@H]1CN(Cc2csc(C(C)=O)c2)C[C@H]1C(=O)O	%	-3.94
Cc1nc(N2CCOCC2)nc(C)c1NS(=O)(=O)c1ccccc1	%	-4.03
O=C(Cc1ccc(F)c(Br)c1)NC1CCN(CC(F)F)CC1	%	3.07
Cc1nc(C(C)N2Cc3ncccc3C2=O)cs1 (configuration not stated)	%	-12.4
Cc1nc(C2(NCC(=O)NCCc3cccs3)CCCC2)no1	%	-9.55
CCN(CC)S(=O)(=O)c1cc2c3c(c1)c(C)cc(=O)n3CCC2	%	36
CCCS(=O)(=O)N1C[C@@H](c2ccccc2)[C@@]2(CCNC2=O)C1	%	5.81
CSc1ccc(CN2CCC(CCC(=O)Nc3ccccc3)CC2)cc1	%	8.45
COc1cc(N(C)CCCn2nc(C)cc2C)ncn1	%	-10.8
